B1: Zinc finger MYM-type protein 2, residues 463 to 506; numbered along this chain, Q9UBW7 (parent)
chain: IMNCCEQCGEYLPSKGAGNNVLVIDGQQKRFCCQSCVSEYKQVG

Variants of: B1
assayName: abundance fitness (aPCA) (normalised: wild type 0, dead -1); higher = more abundant; growth selection in yeast, the domain comes from the species named
runConditions: Homo sapiens
reportedEndpoint: abundance fitness
Could you keep your reply to the number by itself?

In: Value lookup for abundance fitness; key = IMNCCEQCGEYLPSKGAGNNVEVIDGQQKRFCCQSCVSEYKQVG [L22E]
Out: 0.015

In: Quick one: abundance fitness for IMNCCEQCGEYLPSKGAGNNVLVIDGQQKRFCCQICVSEYKQVG [S35I] ?
Out: 0.024

In: Can you look up the measured abundance fitness of IMNCCEQCGEYLPSKGAGNNVLVIDGQQKRFCCQSCVSEYKLVG [Q42L] for me?
Out: -0.101

In: May I ask what abundance fitness has been recorded for IMNCCEQCGEYLPSKGAGNNVLVIDGQQKRFYCQSCVSEYKQVG [C32Y] ?
Out: -0.634

In: // abundance fitness lookup, key: IMNCCEQCGEYLPSKPAGNNVLVIDGQQKRFCCQSCVSEYKQVG [G16P]
Out: -0.175

In: I am curious: what abundance fitness value has been reported for IMNCCEQCGEYLPSKGAGNNVLVIDLQQKRFCCQSCVSEYKQVG [G26L] ?
Out: -0.307

In: Look at this variant and give its reported abundance fitness. IMNCCEQCGEYLPSKGAGNNVLVIDGQQARFCCQSCVSEYKQVG [K29A]
Out: -0.235

In: For the variant shown here, IMNCCEQPGEYLPSKGAGNNVLVIDGQQKRFCCQSCVSEYKQVG [C8P] , give the reported abundance fitness.
Out: -0.775

In: Would you mind telling me what abundance fitness value was observed for IMNCCEQCGEYLPSKGAGNNVLVIDGQWKRFCCQSCVSEYKQVG [Q28W] ?
Out: -0.405

In: Fill in the blank: the reported abundance fitness of IMNCCEACGEYLPSKGAGNNVLVIDGQQKRFCCQSCVSEYKQVG [Q7A] is ____.
Out: -0.09

In: Dear colleague, I am looking for the recorded abundance fitness of the following variant: IMNCCEQCGEYLPSKGAGNNELVIDGQQKRFCCQSCVSEYKQVG [V21E]
Out: 0.128
